All values here come from patent EP2402371A1.

Provide the reported koff of each item.
# Test system: extracellular domain of human GPVI (human) (UniProt Q9HCN6)
# Assay protocol: SPR (Biacore 3000), human GPVI immobilised by amine coupling, Fab as analyte
Quick note: number first, unit second.

Please give koff, item by item, for the list that follows.
1. humanized anti-GPVI Fab VL1/VH1 (Fab, V domains shown) VH: QVQLQESGPGLVAPSQSLSITCTVSGFSLTGYGVNWVRQPPSRGLEWLGMIWGDGSTDYQSTLKSRLSISKDTSKSQVFLKMNSLTTDDTARYYCARDLPMDYWGQGTSVTVSS VL: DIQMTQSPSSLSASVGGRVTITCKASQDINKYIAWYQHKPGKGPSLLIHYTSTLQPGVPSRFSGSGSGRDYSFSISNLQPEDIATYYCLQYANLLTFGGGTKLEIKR
2. humanized anti-GPVI Fab VL1/VH5 (Fab, V domains shown) VH: QVQLQESGPGLVAPSQSLSITCTVSGFSLTGYGVNWVRQPPSRGLEWLGMIWGDGSTDYQSTLKSRLSISKDNSKSQVFLKMNSLTTDDTARYYCARDLPMDEWGQGTSVTVSS VL: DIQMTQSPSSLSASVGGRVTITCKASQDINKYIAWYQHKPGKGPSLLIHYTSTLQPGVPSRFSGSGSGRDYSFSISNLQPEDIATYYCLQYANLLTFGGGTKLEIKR
3. humanized anti-GPVI Fab VL1/VH4 (Fab, V domains shown) VH: QVQLQESGPGLVAPSQSLSITCTVSGFSLTYYGVNWVRQPPSRGLEWLGMIWGDGSTDYQSTLKSRLSISKDNSKSQVFLKMNSLTTDDTARYYCARDLPMDYWGQGTSVTVSS VL: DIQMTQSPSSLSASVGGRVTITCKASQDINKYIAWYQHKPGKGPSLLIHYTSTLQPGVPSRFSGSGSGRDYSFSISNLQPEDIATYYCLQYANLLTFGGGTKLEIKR

["4e-05 s⁻¹", "3e-05 s⁻¹", "2e-05 s⁻¹"]
